Target: cloned human M4 receptor (Homo sapiens, UniProt P08173)
Sequence (P08173 whole entry): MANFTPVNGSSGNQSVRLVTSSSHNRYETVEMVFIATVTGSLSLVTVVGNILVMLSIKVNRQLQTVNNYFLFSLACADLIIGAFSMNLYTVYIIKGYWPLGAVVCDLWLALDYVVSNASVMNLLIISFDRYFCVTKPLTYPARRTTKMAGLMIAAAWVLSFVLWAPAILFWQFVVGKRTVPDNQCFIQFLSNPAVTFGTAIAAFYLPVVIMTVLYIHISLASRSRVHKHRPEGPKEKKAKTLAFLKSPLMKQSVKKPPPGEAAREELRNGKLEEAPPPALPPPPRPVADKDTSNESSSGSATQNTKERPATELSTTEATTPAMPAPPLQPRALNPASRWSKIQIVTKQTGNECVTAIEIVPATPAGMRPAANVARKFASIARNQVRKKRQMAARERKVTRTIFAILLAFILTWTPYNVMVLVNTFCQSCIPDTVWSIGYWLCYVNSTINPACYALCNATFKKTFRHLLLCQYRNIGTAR
Experiment: hM4 receptor GTPγS binding
Conditions: CHO membranes expressing hM4, [35S]GTPγS binding
Entries and their measured EC50 follow.
Test readout: EC50

CCOC(=O)N1CCC(C)(N2CCC(N3C(=O)N[C@H]4CCCC[C@@H]43)CC2)CC1 [Example 01]    > 1.2 µM
C#CCOC(=O)N1CCC(C)(N2CCC(N3C(=O)N[C@H]4CCCC[C@@H]43)CC2)CC1 [Example 17]    > 30 µM
CC1(N2CCC(N3C(=O)N[C@H]4CCCC[C@@H]43)CC2)CCN(C(=O)OCCF)C1 (mixture of isomers) [Example 08]    > 30 µM
CCOC(=O)N1CCC(C)(N2CCC(N3C(=O)N[C@H]4CCCC[C@@H]43)CC2)C1 (single isomer, unassigned) [Example 21]    > 90 µM
